Reference for the values: ChEMBL document CHEMBL3580634

# TEST NAME: Lipophilicity, log D of the compound in n-octanol/phosphate buffer pH 7.4 by shake flask method
# Type: physicochemical
Please mark Y if the recorded logD is equal to or greater than 3, and N if it falls below.

Task: Does the reported logD for "CCC(CC)(NC(=O)c1ccc(N2CC(F)(F)C2)c(OCC2CC2)n1)C(=O)NC" fall at or above the 3 mark?
Output: Y

Task: Do the same for "CCC(CC)(NC(=O)c1ccc(N2CC(OC)C2)c(OCC2CC2)n1)C(=O)NCCCF" please
Output: Y

Task: Do the same for "CCC(CC)(NC(=O)c1ccc(N2CC(OC)C2)c(OCC2CC2)n1)C(=O)NCCF" please
Output: Y

Task: Do the same for "CCC(CC)(NC(=O)c1ccc(N2CC(OC)C2)c(OCC2CC2)n1)C(=O)NC" please
Output: Y

Task: Do the same for "CCOC(=O)C(CC)(CC)NC(=O)c1ccc(N2CC(O[11CH3])C2)c(OCC2CC2)n1" please
Output: N

Task: Do the same for "COC1CN(c2ccc(C(=O)NC(C)(C)Cc3nnc(C4CCC4)o3)nc2OCC2CC2)C1" please
Output: Y

Task: Do the same for "COC1CN(c2ccc(C(=O)NC3(CC(N)=O)COC3)nc2OCC2CC2)C1" please
Output: N

Task: Do the same for "CCC(CC)(NC(=O)c1ccc(N2CC(OC)C2)c(OCC2CC2)n1)C(=O)N1CC(F)C1" please
Output: Y
